Could you please report measured Cmax for the items listed next?
- ASSAY COMMENT: Cmax in Sprague-Dawley rat at 1 mg/kg, iv measured upto 24 hrs by LC-MS/MS analysis
- Type: ADME, organism-based
- Set-up: dose 1 mg/kg, time < 24 hrs, route iv
- TEST CONDITIONS: in vivo
Numbers only, in ng/mL.

Please review the entries below; each comes with its answer.
Suppose we examine the compound CC(C)n1cnnc1-c1cccc(NC(=O)c2cc3c(cc2F)OCc2cncn2-3)c1 ; what Cmax value has been reported? 235

Suppose we examine the compound CC(C)n1cnnc1-c1cccc(NC(=O)c2cc3c(cc2F)CCC(=O)N3)c1 ; what Cmax value has been reported? 274

Suppose we examine the compound CC(C)n1cnnc1-c1cccc(NC(=O)c2cc3c(cc2F)CCCC(=O)N3)c1 ; what Cmax value has been reported? 420

Suppose we examine the compound CC(C)n1cnnc1-c1cccc(NC(=O)c2cc3c(cc2F)OCC(=O)N3C)n1 ; what Cmax value has been reported? 779

Let us examine a further case.
Suppose we examine the compound CC(C)n1cnnc1-c1cccc(NC(=O)c2cc3c(cc2F)C(C)(C)CC(=O)N3)n1 ; what Cmax value has been reported? 945
